Reported Kd values follow for various binders
Target: T1, anti-Inf-A binding antibody
T1 construct: also called anti-Inf-A antibody; anti-inf A antibody
Experiment: SPR biosensor, anti-Inf-A antibody immobilised on Au substrate, BSA blocked
Ends that are not written are not given here.
Output spec: scalar in µM, unitless text.

>>> observed_result("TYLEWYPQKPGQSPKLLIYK (not fully specified (N-terminus), Synthetic 20-mer homologous to the FR2 region of the light chain; The label differs between experiments; also called L1 switching peptide; first peptide compound L1) [L1 peptide]")
14

Proceed to the following item.
Q. I have this binder here, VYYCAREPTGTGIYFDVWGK (not fully specified (N-terminus), Synthetic 20-mer homologous to the FR3 or FR4 region of the heavy chain; The label differs between experiments; also called H2 switching peptide; fourth peptide compound H2) [H2 peptide] , and I need its recorded Kd.
A. 37
